Each recorded value in this set is attributed to patent EP1140809B1.

Tested on: Smooth muscle cells
ASSAY OVERVIEW: Smooth muscle cell (SMC) migration test (horizontal, vitronectin-coated plates)
Type: cell-based, humans or rats
TEST PARAMETERS: migration on vitronectin, 24 hours at 37°C; human or rat cells not specified
MEASURED ATTRIBUTE: IC50 (nM)

Some solved entries appear below for comparison.
{"columns": ["MOLECULE", "MEASURED ATTRIBUTE", "MEASUREMENT UNIT", "MEASURED NUMBER"],
 "data": [
  ["O=C(O)CNS(=O)(=O)c1cccc(-c2cccc(NC(=O)NCc3ccccn3)c2)c1 [Example 4.1]", "IC50", "nM", 300],
  ["Cc1cc(C)c(S(=O)(=O)N[C@@H](Cc2ccc(-c3cccc(NC(=O)NC4CC4)c3)cc2)C(=O)O)c(C)c1 [Example 1.13]", "IC50", "nM", 390]
]}

P: Cc1cc(C)c(S(=O)(=O)N[C@@H](Cc2ccc(-c3cccc(NC(=O)c4ncc[nH]4)c3)cc2)C(=O)O)c(C)c1 [Example 19.1.2]
Q: Cc1cc(C)c(S(=O)(=O)NC(Cc2ccc(-c3cccc(NC(=O)NCc4cccnc4)c3)cc2)C(=O)O)c(C)c1 (racemic) [Example 1.5]
Short answer wanted: higher IC50, P or Q ? Select an item and report its label.
Q
(Q: 480 nM, P: 80 nM)
